# Tested on: K4 kissing-loop RNA reporter
# procedure_text: apparent KD of K4 kissing-loop reporter; higher = weaker reporter binding
# reported_conditions: Eterna round: R107; input ligand: none
# key: entry, value: apparent KD of K4 kissing-loop reporter

# seq_string, apparent KD of K4 kissing-loop reporter [nM]
records = [
    ("UGUGUUGUUUUGAUGUUUGUUGUAAGGUGGCAGGAUAUCGUAGAGGCGAGAAGGGCUUUUUUGCGUUAUGAGUGAUGUUUGUAGG [exeerzmullin]", 614),
    ("GGAUAGGACAGAGGAUAUCCAGUGAUGUUGGAGAAUUCUCCUUCAUCAUGUCACAAAAGUGGCAUGGGAGAAGGCUGUCCUAUCG [Mod of Eli's FmnBX 29 v3]", 576),
    ("GGAUAGGACAGAGGAUAUCCUGAGUCUACAAAGUAGGCUCAUAAAGGAUGAAUCCUAGUGAUGUUAGGAGAAGGCUGUCCUAUCG [FmnBX 16 - #SwitchBubble #StaticStem #Palindromic]", 76.3),
    ("GUAGCCCUAUGUGAUACCAGACGGUAUAAAAUCCUGGCGGCCAGUGAUGUUGGCCAUCGCGUCCCUUGGCAGCACCAAGGCUGUA [theeternabot_sameState_KL_Theo_B_18]", 142),
    ("UGUACCGAGUCAGGAUAUCAUAAUAAUGCAGUGAUGUUGCAAUAACGACUGACAAAGUCGGUCGAUUGAGAAGGGACUUGGUACU [FmnBS 6 #SwitchBubble #StaticStem]", 129),
    ("UGACUUGCCUGAGGAUAUCUAGGAUAUCCAUAAAAGAAAAUAAUAAUCCAGUGAUGUUGGAGAAGGAGAGAAGGCAGGUAAGUCU [KL-XFMN-B17 #DoubleAptamer #SwitchBubble]", 119),
    ("GCGUCUUGGUCGGCCGCCACUGAGCCUAGUCACACUCUUGAGUGAUGUUGAAGAUGGUGGACUUGCAGGACCGGGACCACGGACG [theeternabot_sameState_KL_Trp_B_41]", 590),
    ("AAAAUUGCGGUCGAAUUAACUUCUUGCAUACGAGGACCGGUACGGCCGCCACUCGAGUCAAGUGAUGUUUGAUAAUCUAUUAUUA [JR_ExcTryptoA_Sub011]", 279),
    ("ACGUCUCGUUAAAUCGUGGUUUCGAUCGAUACCAGUAGCGAGAGUUACCCUUGGCAGCGAAAUGAGUGAUGUUCAUGAAAGAAGA [KL-XTheoA9]", 69.4),
    ("UAACGGCCCAGUGAUGUUGGGUGGAGGCGGCGAGGACCGGUACGGCCGCCACUCGGCGCACAGGCGGAGUGAUGUUGCGCGUAAA [Same State Tryptophan A GF 13]", 319),
    ("GCAGCACCGAGUGAUGUUUGGUUCAGCGUGAAGGAUAUAAUAUCUGUUAGAAGGUCAAGUGAGAUUGUCGCGAAUCAGUUUUGAU [theeternabot_exclusion_KL_FMN_A_41]", 309),
]

---

# System: MS2 coat protein
# procedure_text: apparent KD of MS2 coat protein; designed switch direction (-1 OFF switch, 1 ON switch): -1; higher = weaker reporter binding
# reported_conditions: input ligand: microRNA oligo, concentration not stated
The reader will find reported apparent KD of MS2 coat protein values listed item by item below.

# seq_string, apparent KD of MS2 coat protein (nM)
rows = [
    ("UCCAAGUUUGUAGGAUAUACUCUCCUUUGGAGAGUAGAAGGACAUGAGGAUCACCCAUGUUGUAUAAAUUUGGGAUGUUCCUCG [random3] (Eterna round: R96, puzzle: Exclusion NG 1)", 51.3),
    ("CUCGUGCAGCAAAGCUGUACGAGUACAUGAGGAUCACCCAUGUAGGAUAUGGUACGCUUUGCGUGCUAGAAGGACGUGUGUAUG [Mat - Exclusion NG 3 - Mod of JL - D90] (Eterna round: R96, puzzle: Exclusion NG 3)", 26.9),
    ("UUUUUAUAUGAAGGAUAUACUUAACAUGAGGAUCACCCAUGUGGUGUUGUGAGUGAGUGAGUUUAGUAGAAGGUCAAUUAUUUC [JMF's solution 17] (Eterna round: R96, puzzle: Exclusion NG 2)", 292),
    ("AAGAAACAUGAGGAUCACCCAUGUGAGGAUAUGAAAAAGAAAAGAAAAGAAAGAAGAAUCAGAAGGCACAAAGG [Nebkaure Khety II] (Eterna round: R96, puzzle: Exclusion 1)", 24.3),
    ("UCUCGCGGGCAAGGAUAUCCCACGCUGUUCUGGCCCGUGUCUGUUACAUGAGGAUCACCCAUGUGGGAGAAGGUGCACCAGGGC [Design 43] (Eterna round: R96, puzzle: Exclusion NG 2)", 16.8),
    ("GCAGCAACUCUAACCAACUAAACAUGAGGAUCACCCAUGUCUCAGGAUAUGGUCUGGAUUACAGGCCAGAAGGGAGAAAGCUGC [Eli exng3 - 042] (Eterna round: R96, puzzle: Exclusion NG 3)", 12.3),
    ("GGAAAACGCUGAGGAUAUGGAAGGAAAGGAAGACCAGAAGGCAGGGUCACACAACAUGAGGAUCACCCAUGUGUGUGUAGCGGA [exng1 ex3] (Eterna round: R96, puzzle: Exclusion NG 1)", 10.2),
    ("AGGGAAGAGUGAGGAUAUGGAAAUUUGGUGAGAACAUGAGGAUCACCCAUGUGGAAACAAGAAAAUUAGAAGGUAUAGGGAGGG [AK ExNG2-1.2] (Eterna round: R96, puzzle: Exclusion NG 2)", 45.3),
    ("UACAUGAGGAUCACCCAUGUUUUGUCGUGUAUGGUAUUUAUCUAGGAUAUCAAUUUGAUUAUUUAUGAGAAGGAGAAUAUUAAU [JMF's solution 65] (Eterna round: R96, puzzle: Exclusion NG 3)", 28.8),
]

---

Here the recorded apparent KD of MS2 coat protein is given for each entry.
# Test system: MS2 coat protein
# procedure_text: apparent KD of MS2 coat protein; designed switch direction (-1 OFF switch, 1 ON switch): -1; higher = weaker reporter binding
# reported_conditions: input ligand: none

# seq_string, apparent KD of MS2 coat protein
data = [
    ("GGACGGAAAGUGAGGAUAUGCUCUACCUCGGUAGAGCAGAAGGCACAUGAGGAUCACCCAUGUGAAAACUGUUC [Omei Ex4B B30] (Eterna round: R97, puzzle: Brourd's mod of Exclusion 4)", "15.2 nM"),
    ("AAUUAGCAAGCGAGAUCCCACAUGAGGAUCACCCAUGUGCUCGUCUUAUAAGGUACUGUGACGAUAGUCACGGUACC [Mat - Sensor, turn-off var - Eli Mod - D20] (Eterna round: R97, puzzle: Sensor, turn-off variant 1)", "13.5 nM"),
    ("ACAUGUGUUGUAGGAUAUAGGAGACAUGAGGAUCACCCAUGUUGAUUCAUGUCUAUGGAAACGUCCUAGAAGGACGACAACAUG [Ex NG2 #20] (Eterna round: R96, puzzle: Exclusion NG 2)", "201 nM"),
    ("GGAUCGAGUGUGAGGAUAUACCUAUGGAAACAUAGGUAGAAGGCACAUGAGGAUCACCCAUGUUCCAACGGUCC [Mat - Exclusion 4 - Eli Mod - D11] (Eterna round: R97, puzzle: Brourd's mod of Exclusion 4)", "90.6 nM"),
]

---

Recorded apparent KD of K4 kissing-loop reporter, one value per entry.
# Test system: K4 kissing-loop RNA reporter;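 further: bound reporter read as fluorescence of individual clusters on recovered sequencing chips by microscopy, with normalized cluster intensities fitted with a binding model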
# procedure_text: apparent KD of K4 kissing-loop reporter; higher = weaker reporter binding
# reported_conditions: Eterna round: R107; input ligand: arginine 13.2 mM
readout_type: apparent KD of K4 kissing-loop reporter (µM)

# seq_string, tested_system, readout_type, observed
measured = [
    ("UACUAGUGAAACUAGUAGGUGCUAGGUGAAGGAGCGAUCGAAAGAUCAGGUAGGUCGCACCUUCCUGAGUGAUGUUCAGGUAAUA [KL-SSArg-A3]", "K4 kissing-loop RNA reporter", "apparent KD of K4 kissing-loop reporter", 0.0296),
    ("UGACAUUGCUCAGAUACCAGUCAUGAGGAUCACCCAUGGGCCAAAACGUACUAAAUAAAUGACCCUUGGCAGCUGAGCAAUGUCU [TheoBX 13]", "K4 kissing-loop RNA reporter", "apparent KD of K4 kissing-loop reporter", 0.0369),
    ("UGUCAUUGGUCGGCCGCCACUAGAAGGUCAAAGACCAAAGAGUGAUGUUCUUAGACGAAAGUCACUAGGACCGGGACCGAUGACU [TrypBS 7 #SwitchBubble #K4Middle]", "K4 kissing-loop RNA reporter", "apparent KD of K4 kissing-loop reporter", 0.641),
    ("GGAUAGGACAGAGGAUAUCUCUGAGGCAAGAAAACUUGUCUCUAAGGAGAUGACUCAGUGAUGUUGAGAGAAGGCUGUCCUAUCG [FmnBX 12 - #SwitchBubble #StaticStem]", "K4 kissing-loop RNA reporter", "apparent KD of K4 kissing-loop reporter", 0.144),
    ("AGUAUGGCAACAUUGCAAGUAGCCGUACCACGAGGACCGGUACGGCCGCCACUCGAUAACUUGCAGUGAUGUUGCAAGUAAGAAU [(T)''-(K)'-(T)'-(T1)-(T2)-(K1)-(K2)_Design4]", "K4 kissing-loop RNA reporter", "apparent KD of K4 kissing-loop reporter", 0.206),
    ("GGUAGCAUGGCGGCCGCCACUCAUCGCCUCCCAUCGUCGGGAAGAAUAAGUGUAGUGAUGUUACAGAGGACCGGGCCAUGCUACC", "K4 kissing-loop RNA reporter", "apparent KD of K4 kissing-loop reporter", 0.386),
]

Hello, the source for this data is the supplement of paper PMC9170038, in case you need it.
